- EXPERIMENTAL TARGET: FGFR1 (h) (Homo sapiens)
- Sequence (P11362 22-822): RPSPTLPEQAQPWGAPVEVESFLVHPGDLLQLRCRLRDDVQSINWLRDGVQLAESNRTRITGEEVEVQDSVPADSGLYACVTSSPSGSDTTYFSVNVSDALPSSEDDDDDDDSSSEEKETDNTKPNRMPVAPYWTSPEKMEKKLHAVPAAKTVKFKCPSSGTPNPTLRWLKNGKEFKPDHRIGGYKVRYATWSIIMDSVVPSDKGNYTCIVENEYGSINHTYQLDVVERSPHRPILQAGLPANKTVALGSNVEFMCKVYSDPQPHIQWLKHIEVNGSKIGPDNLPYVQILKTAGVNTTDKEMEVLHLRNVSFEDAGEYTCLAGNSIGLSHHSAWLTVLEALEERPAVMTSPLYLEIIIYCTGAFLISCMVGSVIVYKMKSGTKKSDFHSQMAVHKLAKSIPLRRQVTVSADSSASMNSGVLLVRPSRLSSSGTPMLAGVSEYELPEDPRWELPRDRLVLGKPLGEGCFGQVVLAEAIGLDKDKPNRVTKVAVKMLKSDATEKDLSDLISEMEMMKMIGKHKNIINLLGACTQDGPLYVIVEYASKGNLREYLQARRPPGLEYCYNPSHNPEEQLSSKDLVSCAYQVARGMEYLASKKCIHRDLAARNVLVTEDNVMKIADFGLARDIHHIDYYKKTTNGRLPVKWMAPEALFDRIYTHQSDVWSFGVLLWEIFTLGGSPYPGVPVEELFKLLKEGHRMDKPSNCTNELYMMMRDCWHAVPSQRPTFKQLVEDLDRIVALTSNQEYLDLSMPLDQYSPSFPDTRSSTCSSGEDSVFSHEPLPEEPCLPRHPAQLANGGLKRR
- EXPERIMENT SUMMARY: FGFR1 (enzymatic assay), TR-FRET
- Type: biochemical
- CONDITION CONTEXT: read-out: FGFR 1 pIC50 (converted)
VALUE KIND: IC50 (nM)

(A) COc1cc(OC)cc(N(CCO)c2ccc3ncc(-c4ccccc4CCO)nc3c2)c1 [Compound 151]
(B) COc1cc(OC)cc(N(CCCO)c2ccc3ncc(-c4ccc(F)nc4)nc3c2)c1 [Compound 117]
Returns the identifier with the smallest measured IC50 among A and B . Use the label to indicate which entry you chose.
B

(1) COc1cc(OC)cc(N(CCO)c2ccc3ncc(C4CCN(C(=O)OC(C)(C)C)CC4)nc3c2)c1 [Compound 185]
(2) CNC(=O)c1cc(-c2cnc3ccc(N(CCNC(C)C)c4cc(OC)cc(OC)c4)cc3n2)ccn1 [Compound 14]
Recorded IC50 values differ for 1 and 2 ; which one is higher? Use the label to indicate which entry you chose.
1
(1: 316 nM, 2: 6.17 nM)

###

- EXPERIMENTAL TARGET: FGFR2 (h) (Homo sapiens, UniProt P21802)
- Sequence (P21802 22-821): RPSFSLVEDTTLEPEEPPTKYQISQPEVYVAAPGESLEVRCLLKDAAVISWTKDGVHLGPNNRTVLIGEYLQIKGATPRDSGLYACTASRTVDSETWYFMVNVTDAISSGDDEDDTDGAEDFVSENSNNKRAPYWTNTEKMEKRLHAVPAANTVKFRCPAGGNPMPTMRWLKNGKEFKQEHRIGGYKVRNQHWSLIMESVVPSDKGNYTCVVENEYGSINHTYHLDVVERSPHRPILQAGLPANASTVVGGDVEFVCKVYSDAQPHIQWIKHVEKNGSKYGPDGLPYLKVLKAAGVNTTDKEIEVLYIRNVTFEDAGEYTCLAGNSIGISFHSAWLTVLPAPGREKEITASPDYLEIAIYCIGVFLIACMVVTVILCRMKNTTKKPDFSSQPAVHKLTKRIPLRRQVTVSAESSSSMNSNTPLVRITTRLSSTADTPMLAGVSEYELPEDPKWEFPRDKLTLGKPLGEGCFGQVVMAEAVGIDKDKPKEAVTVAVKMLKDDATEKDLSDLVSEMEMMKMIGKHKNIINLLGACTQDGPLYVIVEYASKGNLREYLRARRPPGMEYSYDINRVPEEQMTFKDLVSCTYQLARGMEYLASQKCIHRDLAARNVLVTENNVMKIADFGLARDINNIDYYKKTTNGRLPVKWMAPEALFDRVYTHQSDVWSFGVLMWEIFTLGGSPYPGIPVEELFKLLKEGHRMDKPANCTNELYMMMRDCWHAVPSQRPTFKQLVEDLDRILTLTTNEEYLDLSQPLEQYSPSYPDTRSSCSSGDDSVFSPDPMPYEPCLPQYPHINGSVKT
- EXPERIMENT SUMMARY: FGFR2 (enzymatic assay), TR-FRET
- Format: biochemical
- CONDITION CONTEXT: read-out: FGFR 2 pIC50 (converted)
VALUE KIND: IC50 (nM)

COMPOUND: COc1cc(OC)cc(N(CCCO)c2ccc3ncc(-c4cnc(N5CCN(C)CC5)c(C)c4)nc3c2)c1
EXPERIMENTAL TARGET: FGFR2 (h) (Homo sapiens, UniProt P21802)
UNIT DESCRIPTOR: nM
IC50: 6.17
//
COMPOUND: COc1cc(OC)cc(N(CC2CC2)c2ccc3ncc(-c4nccs4)nc3c2)c1
EXPERIMENTAL TARGET: FGFR2 (h) (Homo sapiens, UniProt P21802)
UNIT DESCRIPTOR: nM
IC50: 2000
//
COMPOUND: COc1cc(OC)cc(N(CCCNCC(F)(F)F)c2ccc3ncc(-c4ccnc(C(=O)NCCCCCO)c4)nc3c2)c1
EXPERIMENTAL TARGET: FGFR2 (h) (Homo sapiens, UniProt P21802)
UNIT DESCRIPTOR: nM
IC50: 70.8
//
COMPOUND: COc1cc(OC)cc(N(CC2CO2)c2ccc3ncc(-c4ccc(N)nc4)nc3c2)c1 (stereo not drawn)
EXPERIMENTAL TARGET: FGFR2 (h) (Homo sapiens, UniProt P21802)
UNIT DESCRIPTOR: nM
IC50: 17.4
//
COMPOUND: COc1cc(OC)cc(N(CCNC(C)C)c2ccc3ncc(NCC4CCNCC4)nc3c2)c1
EXPERIMENTAL TARGET: FGFR2 (h) (Homo sapiens, UniProt P21802)
UNIT DESCRIPTOR: nM
IC50: 14.1
//
COMPOUND: COc1cc(OC)cc(N(CC2CC2)c2ccc3ncc(-c4nccn4C)nc3c2)c1
EXPERIMENTAL TARGET: FGFR2 (h) (Homo sapiens, UniProt P21802)
UNIT DESCRIPTOR: nM
IC50: 1410
//
COMPOUND: COc1cc(OC)cc(N(CCNC(C)C)c2ccc3ncc(C(=O)N4CCCCC4)nc3c2)c1
EXPERIMENTAL TARGET: FGFR2 (h) (Homo sapiens, UniProt P21802)
UNIT DESCRIPTOR: nM
IC50: 302
//
COMPOUND: COc1cc(OC)cc(N(CC2CC2)c2ccc3ncc(-n4ccnc4C)nc3c2)c1
EXPERIMENTAL TARGET: FGFR2 (h) (Homo sapiens, UniProt P21802)
UNIT DESCRIPTOR: nM
IC50: 575

(P) COc1cc(OC)cc(N(CCNC(C)C)c2ccc3ncc(C(=O)N4CCN(C)CC4)nc3c2)c1
(Q) COc1cc(OC)cc(N(CCCNC(C)C)c2ccc3ncc(-c4ccnc(N)c4)nc3c2)c1
Recorded IC50 values differ for P and Q ; which one is higher? Use the label to indicate which entry you chose.
P
